These measurements were taken from patent US6660718B1.

test system: Streptococcus pneumoniae PRC-53 (mefE efflux); assay: Antibacterial activity test (agar dilution MIC); format: cell-based; conditions: Streptococcus pneumoniae PRC-53 (mefE efflux); agar plates, 37° C., about 20 hours
Minimum inhibitory concentration (MIC) for assorted molecules
Measurement name: Minimum inhibitory concentration (MIC) (µg/mL)

# Molecule, Measurement name, Data value
rows = [
    ("COC1CC(=O)OC(C)CC=CC=CC(O)C(C)CC(CC=O)C(OC2OC(C)C(OC3CC(C)(OC)C(OCCC(C)C)C(C)O3)C(N(C)C)C2O)C1OC (stereo not shown)", "Minimum inhibitory concentration (MIC)", 0.10),
    ("CCC(=O)OC1C(C)OC(OC2C(C)OC(OC3C(CC=O)CC(C)C(O)C=CC=CCC(C)OC(=O)CC(OC(=O)c4ccccc4)C3OC)C(O)C2N(C)C)CC1(C)O (stereo not shown) [Example 25, 3-O-Benzoylleucomycin A7]", "Minimum inhibitory concentration (MIC)", 0.39),
    ("CCCC(=O)OC1C(C)OC(OC2C(C)OC(OC3C(CC=O)CC(C)C(O)C=CC=CCC(C)OC(=O)CC(OC)C3OC)C(O)C2N(C)C)CC1(C)OC(=O)CC (stereo not shown)", "Minimum inhibitory concentration (MIC)", 0.10),
    ("C=CCOC1CC(=O)OC(C)CC=CC=CC(O)C(C)CC(CC=O)C(OC2OC(C)C(OC3CC(C)(OC(=O)CC)C(OC(=O)CCC)C(C)O3)C(N(C)C)C2O)C1OC (stereo not shown)", "Minimum inhibitory concentration (MIC)", 0.20),
]

----------
This listing pairs molecules with measured Minimum inhibitory concentration (MIC).
test system: Micrococcus luteus ATCC9341; test: Antibacterial activity test (agar dilution MIC); type: cell-based; details: agar plates, 37° C., about 20 hours
Measurement name: Minimum inhibitory concentration (MIC) (µg/mL)

# Molecule, System, Data value
rows = [
    ("C=CCOC1CC(=O)OC(C)CC=CC=CC(O)C(C)CC(CC=O)C(OC2OC(C)C(OC3CC(C)(OC(=O)CC)C(OC(=O)CCC)C(C)O3)C(N(C)C)C2O)C1OC (centres unmarked)", "Micrococcus luteus ATCC9341", 0.10),
    ("CCC(=O)OC1C(C)OC(OC2C(C)OC(OC3C(CC=O)CC(C)C(O)C=CC=CCC(C)OC(=O)CC(OC)C3OC)C(O)C2N(C)C)CC1(C)O (centres unmarked)", "Micrococcus luteus ATCC9341", 0.05),
    ("CCC(=O)O[C@H]1[C@H](C)O[C@@H](O[C@H]2[C@H](N(C)C)[C@@H](O)[C@H](O[C@H]3[C@@H](CC=O)C[C@@H](C)[C@@H](O)/C=C/C=C/C[C@@H](C)OC(=O)C[C@@H](O)[C@@H]3OC)O[C@@H]2C)C[C@@]1(C)O [LM-A7, leucomycin-A7, reference compound]", "Micrococcus luteus ATCC9341", 0.10),
    ("COC1CC(=O)OC(C)CC=CC=CC(O)C(C)CC(CC=O)C(OC2OC(C)C(OC3CC(C)(OC)C(OCCC(C)C)C(C)O3)C(N(C)C)C2O)C1OC (centres unmarked)", "Micrococcus luteus ATCC9341", 0.05),
    ("CCCC(=O)OC1C(C)OC(OC2C(C)OC(OC3C(CC=O)CC(C)C(O)C=CC=CCC(C)OC(=O)CC(OC)C3OC)C(O)C2N(C)C)CC1(C)OC(=O)CC (centres unmarked)", "Micrococcus luteus ATCC9341", 0.025),
]

----------
tested on: Moraxella catarrhalis W-0500; experiment: Antibacterial activity test (agar dilution MIC); assay type: cell-based; details: agar plates, 37° C., about 20 hours
List of Minimum inhibitory concentration (MIC) values.

# Molecule, Minimum inhibitory concentration (MIC) / µg/mL
records = [
    ("CCCC(=O)OC1C(C)OC(OC2C(C)OC(OC3C(CC=O)CC(C)C(O)C=CC=CCC(C)OC(=O)CC(OC)C3OC)C(O)C2N(C)C)CC1(C)OC(=O)CC (stereo not shown) [Example 3, 3-O-Methylrokitamycin]", 0.20),
    ("CCC(=O)OC1C(C)OC(OC2C(C)OC(OC3C(CC=O)CC(C)C(O)C=CC=CCC(C)OC(=O)CC(OC(=O)c4ccccc4)C3OC)C(O)C2N(C)C)CC1(C)O (stereo not drawn) [Example 48, 3-Epi-3-O-benzoylleucomycin A7]", 0.78),
    ("C=CCOC1CC(=O)OC(C)CC=CC=CC(O)C(C)CC(CC=O)C(OC2OC(C)C(OC3CC(C)(OC(=O)CC)C(OC(=O)CCC)C(C)O3)C(N(C)C)C2O)C1OC (stereo not shown) [Example 5, 3-O-Allylrokitamycin]", 0.39),
    ("COC1CC(=O)OC(C)CC=CC=CC(O)C(C)CC(CC=O)C(OC2OC(C)C(OC3CC(C)(OC)C(OCCC(C)C)C(C)O3)C(N(C)C)C2O)C1OC (stereo not shown) [Example 20]", 0.39),
    ("CCC(=O)OC1C(C)OC(OC2C(C)OC(OC3C(CC=O)CC(C)C(O)C=CC=CCC(C)OC(=O)CC(OC)C3OC)C(O)C2N(C)C)CC1(C)O (stereo not shown) [Example 23, 3-O-Methylleucomycin A7]", 0.78),
    ("CCC(=O)OC1C(C)OC(OC2C(C)OC(OC3C(CC=O)CC(C)C(O)C=CC=CCC(C)OC(=O)CC(OC(=O)c4ccccc4)C3OC)C(O)C2N(C)C)CC1(C)O (stereo not shown) [Example 25, 3-O-Benzoylleucomycin A7]", 1.56),
    ("CCC(=O)O[C@H]1[C@H](C)O[C@@H](O[C@H]2[C@H](N(C)C)[C@@H](O)[C@H](O[C@H]3[C@@H](CC=O)C[C@@H](C)[C@@H](O)/C=C/C=C/C[C@@H](C)OC(=O)C[C@@H](O)[C@@H]3OC)O[C@@H]2C)C[C@@]1(C)O [LM-A7, leucomycin-A7, reference compound]", 0.78),
]
